- experimental-system: monkey DLL3 on CHO-K1-cyno DLL3 cells (cynomolgus monkey)
- Sequence (chain, as listed by the source limits assumed): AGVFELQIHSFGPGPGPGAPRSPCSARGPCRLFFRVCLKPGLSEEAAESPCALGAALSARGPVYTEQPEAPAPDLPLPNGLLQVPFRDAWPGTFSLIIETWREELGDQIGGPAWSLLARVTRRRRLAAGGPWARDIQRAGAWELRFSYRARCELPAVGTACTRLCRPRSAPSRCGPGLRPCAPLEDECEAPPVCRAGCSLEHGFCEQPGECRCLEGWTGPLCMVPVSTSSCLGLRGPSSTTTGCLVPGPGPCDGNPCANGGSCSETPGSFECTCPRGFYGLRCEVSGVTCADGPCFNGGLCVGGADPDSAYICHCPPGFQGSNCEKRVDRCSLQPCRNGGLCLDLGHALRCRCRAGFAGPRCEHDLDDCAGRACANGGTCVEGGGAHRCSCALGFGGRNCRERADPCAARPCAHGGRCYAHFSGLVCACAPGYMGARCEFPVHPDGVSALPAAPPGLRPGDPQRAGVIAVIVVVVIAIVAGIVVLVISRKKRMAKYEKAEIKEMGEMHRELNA
- procedure-text: FACS, CHO-K1-cyno DLL3 cells, 0.032 nM antibody
Exercise: state measured MFI for each of the binders provided.
One number for each entry, in MFI.

Illustrative cases are given below, each with its answer.
[ask] Field request: MFI | item: Hab014VL2VH1-hFc (scFv, part only; not given: scFv linker and human IgG1 Fc, V domains shown, not shown: another chain or arm of the molecule; a dimerising Fc or GST; small tags and cut ends) VL: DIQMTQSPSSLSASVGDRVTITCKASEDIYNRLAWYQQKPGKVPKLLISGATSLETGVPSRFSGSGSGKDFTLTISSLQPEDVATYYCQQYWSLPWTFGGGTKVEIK VH: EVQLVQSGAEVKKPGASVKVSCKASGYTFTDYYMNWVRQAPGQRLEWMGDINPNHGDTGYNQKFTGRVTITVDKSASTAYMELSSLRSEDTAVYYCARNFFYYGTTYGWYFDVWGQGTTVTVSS
[reply] 661

[ask] Field request: MFI | item: Hab008L3H2a-hFc (scFv, part only; not given: VL-VH linker and human IgG1 Fc, V domains shown, not shown: another chain or arm of the molecule; a dimerising Fc or GST; small tags and cut ends) VL: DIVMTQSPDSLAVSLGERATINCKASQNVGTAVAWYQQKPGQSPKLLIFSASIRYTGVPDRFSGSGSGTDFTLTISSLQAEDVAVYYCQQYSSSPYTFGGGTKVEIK VH: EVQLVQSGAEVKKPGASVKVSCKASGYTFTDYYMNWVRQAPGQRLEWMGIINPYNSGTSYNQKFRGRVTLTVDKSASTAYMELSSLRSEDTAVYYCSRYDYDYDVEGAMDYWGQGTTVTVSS
[reply] 329

# next binder below
[ask] Field request: MFI | item: Hab008L1H5-hFc (scFv, part only; not given: VL-VH linker and human IgG1 Fc, V domains shown, not shown: another chain or arm of the molecule; a dimerising Fc or GST; small tags and cut ends) VL: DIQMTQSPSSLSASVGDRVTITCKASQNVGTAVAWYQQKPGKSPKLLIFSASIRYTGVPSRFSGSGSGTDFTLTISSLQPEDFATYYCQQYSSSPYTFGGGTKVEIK VH: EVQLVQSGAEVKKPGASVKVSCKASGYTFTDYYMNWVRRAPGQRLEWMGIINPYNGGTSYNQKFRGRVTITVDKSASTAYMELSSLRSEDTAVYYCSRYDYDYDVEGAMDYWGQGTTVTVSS
[reply] 286
